- Tested on: HT29 colon
- protocol-summary: NCI-60 one-dose screen, 48 h
- condition-details: 10 µM unless noted
Compounds without any hit were thinned out: in the full panel of roughly 83,000, 20% have a hit. The source made the active and inactive calls. How the source made its calls: active means growth percent below 10; inactive means the rest.
Return exactly one item of yes = active, no = inactive

INSERT INTO results (molecule, category) VALUES
  ('COc1ccc(CN2C(=O)OC(C)(COC(C)=O)C2=O)cc1 (centres undefined)', 'no'),
  ('O=C(O)c1cn(C2CC2)c2cc(N3CCN(C(=O)N4CCOCC4)CC3)c(F)cc2c1=O', 'no');

Prompt: Give the logged outcome of this assay for the following molecule: Clc1ccc(-c2nc(C(Cl)Cl)nc3cc(-c4ccccc4)nn23)cc1
Completion: yes

Prompt: Next record, please: COc1ccc(-c2nc3ccc(C)cc3c3c2c(=O)n(C)c(=O)n3C)cc1OC
Completion: no

Prompt: Next record, please: OC1(c2ccccc2)c2ccccc2N(c2ccccc2)c2ccc(Cl)cc21 (centres undefined)
Completion: yes

Prompt: Next record, please: O=C(NNc1nc2cc(F)ccc2n2c(CN3CCOCC3)ccc12)c1ccccc1
Completion: yes

Prompt: Next record, please: COC(=O)c1ccc2c(c1)c1c(C)c3cnccc3c(C)c1n2C
Completion: yes

Prompt: Next record, please: CN(C)Cc1cc(C(C)(C)C)cc(Br)c1O
Completion: no

###

- Test system: SW-620 colon
- protocol-summary: NCI-60 one-dose screen, 48 h
- condition-details: 10 µM unless noted
This is part of a sample that, as a whole, favours compounds with a hit. Of some 83,000 tested, about 20% had one in any assay. Active and inactive are the calls of the source. Rule for the calls: active = growth percent below 10; inactive = the rest.
Return exactly one item of active, inactive

Recorded results for 8 molecules are shown here.
INSERT INTO results (molecule, category) VALUES
  ('COc1ccc(C=Nc2c(C(=O)Nc3cccc(Cl)c3C)sc3nc(C)c(C(=O)/C=C/c4ccc(OC)cc4)cc23)cc1', 'inactive'),
  ('COc1ccc2cc(-c3nc4ccc(C)cn4c3NCc3ccco3)c(=O)[nH]c2c1', 'inactive'),
  ('O=C(Nc1cccnc1Nc1ccc(Cl)cc1)c1cn(Cc2cccc(Oc3ccccc3)c2)nn1', 'inactive'),
  ('O=S(=O)(Nc1cc(F)cc(F)c1)c1ccc(-c2cnc(C3CC3)o2)cc1', 'inactive'),
  ('C=C1C(=O)O[C@@H]2C3C(=C(C)CC[C@@H]12)CC1O[C@]13C (stereo not given in full)', 'inactive'),
  ('O=Nc1ccc(NC(=O)Nc2ccc([N+](=O)[O-])cc2)cc1', 'inactive'),
  ('CCOC(=O)C/C(=N\Nc1cc(=O)[nH]c2ccc(C)cc12)C(=O)OCC', 'inactive'),
  ('O=C1/C(=C/c2cccc(Br)c2)COc2ccc(O)cc21', 'active');

Prompt: Give the logged outcome of this assay for the following molecule: N#Cc1c(-c2cccc(Cl)c2)cc(-c2cccnc2)[nH]c1=O
Completion: inactive

Prompt: Next record, please: COC(=O)/C=C1/SC(=Nc2ccc(F)cc2)N(CCc2c[nH]c3ccc(O)cc23)C1=O
Completion: inactive

###

- System: SF-295 CNS
- protocol-summary: NCI-60 one-dose screen, 48 h (100 = growth as untreated, 0 = no growth, -100 = all killed)
- condition-details: 10 µM unless noted
Compounds without any hit were thinned out: in the full panel of roughly 83,000, 20% have a hit. Calls of active or inactive are those of the source. How the source made its calls: active means growth percent below 10; inactive means the rest.
metric: growth

INSERT INTO results (compound, metric, result) VALUES
  ('CN(C)CCn1c(=O)c2ccccc2n2nc3ccccc3c12', 'growth', '75% (inactive)'),
  ('CS(=O)(=O)Nc1cc(-c2ccc3ncnc(Nc4ccc(OCc5ccccn5)c(Cl)c4)c3c2)cnc1Cl', 'growth', '-2.49% (active)'),
  ('COc1ccccc1S(=O)(=O)Nc1ccc2c3c(cc(CCC(=O)NCCCCNc4cccc5c4C(=O)N(C4CCC(=O)NC4=O)C5=O)cc13)C(=O)N2C (stereo not given)', 'growth', '47.6% (inactive)'),
  ('COc1cc(OC)c2c(=O)c3c(CC=C(C)C)cc(OC)c(O)c3oc2c1', 'growth', '89.7% (inactive)'),
  ('Cn1cc(-c2nonc2-c2c[nH]c3ccccc23)c2cc(Br)ccc21', 'growth', '24.5% (inactive)'),
  ('O=C(/C=C/C12c3ccccc3C(c3ccccc31)C1C(=O)NC(=O)C12)c1ccco1 (stereo not given)', 'growth', '41.9% (inactive)'),
  ('CCCCO[C@@H]1C=C2[C@H]3CC(C)(C)C(=O)C[C@]3(C(=O)O[C@@H]3O[C@H](CO[C@@H]4O[C@H](CO)[C@@H](OC5OC(C)C(O)C(O)C5O)[C@H](O)[C@H]4O)[C@@H](O)[C@H](O)[C@H]3O)CC[C@@]2(C)[C@]2(C)CC[C@H]3C(C)(C)C(=O)CC[C@]3(C)[C@@H]12 (stereo not given in full)', 'growth', '92.8% (inactive)'),
  ('Nc1[nH]nc2nc(-c3ccccc3)n3c4ccccc4nc3c12', 'growth', '93.2% (inactive)');

Prompt: Consider the compound shown here: O=C(Nc1cccnc1Nc1ccc(Cl)cc1)c1cn(Cc2cccc(Oc3ccccc3)c2)nn1 What is its recorded growth?
Completion: 29.2% (inactive)

Prompt: Next record, please: CCC(C)(C)c1ccc(Nc2ccc(Nc3ccc(C(C)(C)CC)cc3)cc2)cc1
Completion: 102% (inactive)

Prompt: Next record, please: COc1cc(-c2cc(-c3ccc(Nc4nc(Nc5ccc(Cl)cc5)nc(Nc5ccc(Cl)cc5)n4)cc3)no2)cc(OC)c1OC
Completion: 62.3% (inactive)

Prompt: Next record, please: N#Cc1nn(-c2cc(=O)[nH]c3ccc(Br)cc23)c(N)c1C#N
Completion: 101% (inactive)

Prompt: Next record, please: O=C(O)CCCCCCCCCCN1C(=O)/C(=C2/C(=O)N(CC(=O)O)c3ccc(Br)cc32)SC1=S
Completion: 103% (inactive)

Prompt: Next record, please: CCn1cc(C(=O)N/N=C/c2ccccc2)c(=O)c2cc(F)c(N3CCNC(C)C3)c(F)c21 (stereo not given)
Completion: 8.87% (active)

Prompt: Next record, please: CN(C)/C(N)=N/N=C(\c1ccccc1)c1ccccn1
Completion: 106% (inactive)

Prompt: Next record, please: Cc1nc(N/N=C/c2cn(-c3ccccc3)nc2-c2cc3ccccc3oc2=O)sc1N=Nc1ccccc1
Completion: 81.6% (inactive)

Prompt: Next record, please: CC(=O)Nc1sc2c(c1-c1nc3ccccc3s1)CNC2
Completion: 13.3% (inactive)

Prompt: Next record, please: CSc1nc(-c2ccco2)c(C#N)c(=O)n1C
Completion: 97.9% (inactive)

###

- Test system: IGROV1 ovarian
- protocol-summary: NCI-60 one-dose screen, 48 h (100 = growth as untreated, 0 = no growth, -100 = all killed)
- condition-details: 10 µM unless noted
About 83,000 compounds went through this panel and 20% of them were active in at least one assay; those are over-represented in the sample as a whole.
Hi! Just check whether growth is below 40%. Below gives true (1), equal or above gives false (0).

Recorded results for 5 molecules are shown here.
INSERT INTO assay_data (molecule, category) VALUES
  ('c1cc(OCCN2CCCCC2)ccc1CNc1ccc2nc(CCC3CCCCC3)[nH]c2c1', 'false (0)'),
  ('Cc1nn(-c2ccc([N+](=O)[O-])cc2)c2ncnc(N/N=C/c3ccccc3O)c12', 'true (1)'),
  ('C=C(C)[C@@H]1CC[C@]2(C(=O)Nc3ccccn3)CC[C@]3(C)[C@H](CC[C@@H]4[C@@]5(C)CCCNC(C)(C)[C@@H]5CC[C@]43C)[C@@H]12', 'true (1)'),
  ('O=C(/C=C/c1ccccc1)N(C1CCCCC1)C1CCCCC1', 'false (0)'),
  ('CC(=O)N1N=C(c2ccc(Nc3nc(Nc4ccc(F)cc4)nc(Nc4ccc(F)cc4)n3)cc2)CC1c1ccc(N(C)C)cc1 (centres undefined)', 'false (0)');

Prompt: Would you kindly verify if growth of CCOC(=O)c1ccc[nH]1 is strictly less than 40%?
Completion: false (0)

Prompt: Next record, please: CCN1C2CCC1/C(=C\c1ccccc1)C(=O)/C2=C/c1ccccc1
Completion: false (0)

Prompt: Next record, please: CNCCCNc1nc2ccccc2c2c(=O)c3cc(Cl)ccc3sc12
Completion: true (1)

###

- System: SK-MEL-2 melanoma
- protocol-summary: NCI-60 one-dose screen, 48 h
- condition-details: 10 µM unless noted
About 83,000 compounds went through this panel and 20% of them were active in at least one assay; those are over-represented in the sample as a whole. Calls of active or inactive are those of the source. Rule for the calls: active = growth percent below 10; inactive = the rest.
Return exactly one item of label 1 for active, label 0 for inactive

Recorded results for 6 molecules are shown here.
INSERT INTO results (molecule, category) VALUES
  ('CNC(=O)NCC1OC(n2cnc3c(NC(=O)Nc4ccccc4)ncnc32)C2OC(=O)CC12 (configuration not stated)', 'label 0'),
  ('C(=C(\C1=NCCN1)n1ccc2ccccc21)/c1ccccc1', 'label 0'),
  ('CCOC(=O)c1nnn(-c2no[n+]([O-])c2-c2ccc(OC)cc2)c1COc1cccc2cccnc12', 'label 1'),
  ('COc1c2c(cc3c1C(=O)N[C@@H]1[C@@H](O)[C@@H](O)[C@H](O)C[C@@H]31)OCCO2', 'label 0'),
  ('COc1cc(/C=C/C(=O)c2cccc(-n3cc(-c4ccc(Cl)cc4)[nH]c3=O)c2)ccc1O', 'label 0'),
  ('O=C(/C=C/c1cccc(Oc2ccccc2)c1)c1ccc(Nc2nc(Nc3ccc(F)cc3)nc(Nc3ccc(Cl)cc3)n2)cc1', 'label 0');

Prompt: Give the logged outcome of this assay for the following molecule: O=C(NCCN1CCOCC1)OCc1ccc2c(Cl)cc(Cl)c(O)c2n1
Completion: label 0

Prompt: Next record, please: Cc1c2ncccc2nc2[nH]c3ccc(OCCN(C)C)cc3c12
Completion: label 0

Prompt: Next record, please: CC1(C)CC(=O)C2=C(C1)C(c1ccc(Cl)cc1)n1ncc(C#N)c1N2 (configuration not stated)
Completion: label 0

Prompt: Next record, please: Clc1ccc(Nc2ncc(Cc3cccc(Cl)c3Cl)s2)cc1
Completion: label 0

Prompt: Next record, please: COc1cc(-c2cc(-c3ccc(Nc4nc(Nc5ccc(Cl)cc5)nc(Nc5ccc(Cl)cc5)n4)cc3)no2)cc(OC)c1OC
Completion: label 0

Prompt: Next record, please: C=C(c1ccc(C(=O)O)c(F)c1)c1cc2c(cc1C)C(C)(C)CCC2(C)C
Completion: label 0

Prompt: Next record, please: C=CCn1cc(-c2nc3ccccc3s2)c2cc(-c3ccc4c5c(cccc35)C(=O)N(CCO)C4=O)ccc21
Completion: label 0

Prompt: Next record, please: COc1cc2ncnc(Nc3ccc(F)c(Cl)c3)c2cc1OCC(=O)N1CCOCC1
Completion: label 0

Prompt: Next record, please: COCCOC(C)C(/C=N/NC(N)=S)=N/NC(N)=S (configuration not stated)
Completion: label 0

Prompt: Next record, please: C=C1C(=O)O[C@H]2[C@H]1CC/C(COC(=O)NCc1ccc(Cn3c(=O)sn(-c4ccc(I)cc4)c3=O)cc1)=C\CC[C@@]1(C)O[C@@H]21
Completion: label 0

Prompt: Next record, please: C#CCOc1ccc2nc(CCl)c(Cl)c(Nc3cccc(C(F)(F)F)c3)c2c1
Completion: label 0

Prompt: Next record, please: CN1CCN(c2ccc(NC3=CC(=O)c4ncncc4C3=O)cc2)CC1
Completion: label 1

Prompt: Next record, please: COc1ccc(/C=N/NC(=O)Cn2c(-c3ccc(S(C)(=O)=O)cc3)nc3ccccc32)cc1
Completion: label 0

Prompt: Next record, please: N#Cc1c(-c2ccccc2)nc2c(c(-c3ccccc3)nn2-c2ccccc2)c1-c1ccc(N2CCCCC2)cc1
Completion: label 0

Prompt: Next record, please: N#CC1=C(N)Oc2c(sc3c(F)cccc23)C1c1ccc([N+](=O)[O-])cc1 (configuration not stated)
Completion: label 1

Prompt: Next record, please: O=C(NCCCCO)c1cncnc1Nc1ccc2c(ccn2Cc2cccc(F)c2)c1
Completion: label 0

Prompt: Next record, please: Brc1ccc(Nc2nc(Nc3cnc4ccccc4c3)c3[nH]cnc3n2)cc1
Completion: label 0

Prompt: Next record, please: Clc1ccc2nn3c4ccccc4c(OCCN4CCOCC4)nc3c2c1
Completion: label 0

Prompt: Next record, please: Cc1c2cnccc2c(C)c2c1c1cc(CO)ccc1n2C
Completion: label 1
